Please provide measured aptazyme ON/OFF ratio for the entries that follow.
B1: Pistol ribozyme (parent)
chain: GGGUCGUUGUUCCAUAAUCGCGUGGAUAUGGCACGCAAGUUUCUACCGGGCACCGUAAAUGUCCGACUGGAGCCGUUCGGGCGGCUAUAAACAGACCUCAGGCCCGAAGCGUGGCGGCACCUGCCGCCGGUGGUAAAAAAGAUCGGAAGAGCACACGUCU

Variants of: B1
measurement_notes: aptazyme ON/OFF ratio, guanine; higher = stronger switching; co-transcriptional cleavage with and without guanine
Number, no unit, nothing else.

Query string: Could you tell me which aptazyme ON/OFF ratio is on file for U7A U8C G9C U10G U11A ?
Result string: 1.04

Query string: Consider the variant shown here: U8G G9C U10G C12U What is its recorded aptazyme ON/OFF ratio?
Result string: 1.06

Query string: Sample U7A U8A U11G — what was its aptazyme ON/OFF ratio?
Result string: 1.25

Query string: Entry under review: U7A U8A G9C U10C U11G C12A C13A . Reported aptazyme ON/OFF ratio?
Result string: 0.981

Query string: Query: aptazyme ON/OFF ratio; subject: U7C U8G G9C U11A C12A C13G
Result string: 1.11

Query string: Report aptazyme ON/OFF ratio for U7C U8A G9A U10G C13A please.
Result string: 1.17

Query string: # query: aptazyme ON/OFF ratio of entry U7G G9U U10A U11A C12U C13A
Result string: 0.962

Query string: # query: aptazyme ON/OFF ratio of entry U7A G9A U10C U11C C13U
Result string: 1.02

Query string: State the recorded aptazyme ON/OFF ratio for this entry: U7C U10G U11G C12A
Result string: 1.2

Query string: Tell me the measured aptazyme ON/OFF ratio of U7G U8A G9U C12G C13A , please.
Result string: 1.11

Query string: So what does the record say about aptazyme ON/OFF ratio for U7C U8G G9U C12A ?
Result string: 1.64

Query string: Field request: aptazyme ON/OFF ratio | item: U8G G9C U10G U11G C12U C13G
Result string: 1.14

Query string: Any idea what its aptazyme ON/OFF ratio is? The variant is U8C U11A C13G
Result string: 1.07

Query string: What measured aptazyme ON/OFF ratio goes with U7A U8C G9U U11A C12A C13G ?
Result string: 1.24

Query string: Would you mind telling me what aptazyme ON/OFF ratio value was observed for U10G U11G C12G C13G ?
Result string: 1.18

Query string: Entry under review: U8G G9C U11C C12U . Reported aptazyme ON/OFF ratio?
Result string: 1.04

Query string: Requested read-out: aptazyme ON/OFF ratio. Entry: U7C U8G U11C C12G C13G
Result string: 1.17

Query string: For the variant U7G U8A G9A C12G C13U , what aptazyme ON/OFF ratio is on record?
Result string: 1.11

Query string: What value of aptazyme ON/OFF ratio has been reported for the following variant? U8C G9C U10A U11G C12G C13U
Result string: 1.09

Query string: What value of measured aptazyme ON/OFF ratio is listed for U7C U8C U10A C12U ?
Result string: 1.12

Query string: Item U7A U8G G9C U11G C12U C13G has what recorded aptazyme ON/OFF ratio?
Result string: 1.41

Query string: What value of aptazyme ON/OFF ratio has been recorded for this entry: U7G U8C G9C U10A U11C C12U C13G
Result string: 1.3
